Test system: MCF7 breast cancer cell lines
TEST NAME: Cell viability analysis, WST-8 assay, MCF7
SETUP CONDITIONS: Homo sapiens, MCF7, 72 h, read-out: Cell viability (%) WST-8, MCF7, footnote a: concentration 1.25 µM, 72 hours
REPORTED PROPERTY: viability at 1.25 µM (%)
The figure you give is taken to be in %; do not add the unit.

Which measured viability at 1.25 µM value corresponds to CNCc1ccc(-c2nc(Nc3cc(C4CC4)[nH]n3)c3ccccc3n2)cc1 [9d] ? 36.2

Which measured viability at 1.25 µM value corresponds to CC(C)(C)OC(=O)N1CC2CC1CN2c1nc(Nc2cc(C3CC3)[nH]n2)c2ccccc2n1 (stereo not shown) [compound 13] ? 62

Which measured viability at 1.25 µM value corresponds to CS(=O)(=O)Cc1ccc(Nc2nc(Nc3cc(C4CC4)[nH]n3)c3ccccc3n2)cc1 [compound 4f] ? 94.5

Which measured viability at 1.25 µM value corresponds to FC(F)(F)c1cc(Nc2nc(Nc3cc(C4CC4)[nH]n3)c3ccccc3n2)ccc1Cl [compound 4k] ? 80.8
